This collection of values is drawn from patent US11331299B2.

target: PB1(4) (h) bromodomain (Homo sapiens); construct: Bromodomain; assay: Epigenetic binding assay, Bromodomain; conditions: Table 4; read-out: Reference IC50
Sequence (Q86U86 518-625 limits assumed): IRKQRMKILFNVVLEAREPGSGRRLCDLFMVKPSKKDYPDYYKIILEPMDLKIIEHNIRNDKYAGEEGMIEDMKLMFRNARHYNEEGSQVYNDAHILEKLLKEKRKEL
Where a name gives a salt, the structure may show the parent alone.
Measurement type: pIC50
Recall that pIC50 is obtained by taking minus log10 of the concentration measured in molar.

Inquiry: Find the measured pIC50 of Cc1cc(/N=N/c2cc(S(=O)(=O)O)c(C)cc2C)c(N)cc1O [Ischemin sodium salt, reference compound] and report it.
Reply text: 5.17

----------
system: HCT-8; experiment: OncoPanel cell proliferation assay (10-day); type: cell-based, human; settings: Homo sapiens; HCT-8, Colon; read-out: Cell Count EC50
This section presents compounds with their documented EC50 values.
Answer format: numeric, µM implied, no suffix.

See these solved cases before continuing.
INSERT INTO results (compound, measurement_type, measurement) VALUES
  ('CC(C)=CCC[C@H](C)[C@@H]1CC[C@@H](C)c2c1cc(C)c(O)c2O [Compound 4, 7,8-dihydroxyserrulat-14-ene]', 'EC50', 12.9),
  ('CC(C)=CCC[C@@H]1C(O)Oc2c(C)cc(O)c3c2[C@H]1CC[C@H]3C (stereo partly drawn)', 'EC50', 6.27);

Then this compound:
Inquiry: Indicate its recorded EC50; the compound in question is CC(C)=CCC[C@H](CO)[C@@H]1CC[C@@H](C)c2c1cc(C)c(O)c2O [Compound 1, 7,8,18-trihydroxyserrulat-14-ene]
Reply text: 1.23
